B1: CDS2 (parent)
chain: IHSIALSTFASLIGPFGGFFASGF

# Variants of: B1
# Measurement description: protein stability index of a GFP-peptide fusion (GPS, HEK-293T) (PSI 1-6); higher = more stable;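 note: lentivirally expressed fusions sorted by FACS into six bins by GFP to DsRed ratio, PSI derived from sequencing read proportions per bin multiplied by bin number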
# Test conditions: c terminus: a fixed tail appended
Hi, to clarify the labels: Criterion met covers protein stability index from 3 upward, Criterion not met covers anything below 3.

| Mutation label | Assigned label |
| --- | --- |
| P15F | Criterion not met |
| G17P | Criterion not met |
| G23S | Criterion not met |
| F19D | Criterion met |
| S11F | Criterion met |
| I4Y | Criterion not met |
| F24G | Criterion met |
| L12A | Criterion not met |
| F24W | Criterion met |
| L12T | Criterion not met |
| A5E | Criterion met |
| L12I | Criterion not met |
| S3Y | Criterion not met |
| A21V | Criterion not met |
| G14L | Criterion met |
| G23V | Criterion not met |
| T8H | Criterion met |
| G14A | Criterion met |
| A5N | Criterion met |
| S11N | Criterion not met |
| F16K | Criterion met |
| F16A | Criterion met |
| S22F | Criterion met |
| T8W | Criterion not met |
| G18H | Criterion not met |
| S3G | Criterion not met |
| G14Y | Criterion not met |
| G18R | Criterion met |
| A5M | Criterion not met |
| T8I | Criterion not met |
| I1G | Criterion not met |
| G23L | Criterion not met |
| G17T | Criterion met |
| L6D | Criterion met |
| F20S | Criterion not met |
| L6T | Criterion not met |
| G17E | Criterion met |
| S11E | Criterion met |
| A5T | Criterion not met |
| F19P | Criterion not met |
